Tested on: Human osteosarcoma U2OS cells
protocol.notes: Assay to measure lysosome and autolysosome (acidic vesicle) formation in U2OS cells
Type: cell-based
test.context: Homo sapiens, concentration of 0.8 μM, read-out: Activity (percentage increase in acidic vesicle formation over the DMSO-treated control)
test.readout: activation at 0.8 µM

CCN1CCC(NC(=O)c2csc(-c3cnn(-c4ccc(F)cc4)c3)n2)CC1 | 10 to 30%
CCN1CCC(N(C)C(=O)c2csc(-c3cnn(-c4cnccn4)c3)n2)CC1 | 50 to 100%
CCN1C[C@@H]2C[C@H]1CC2NC(=O)c1csc(-c2cnn(-c3ccccc3)c2)n1 (stereo partly shown) | 10 to 30%

// next item, activation at 0.8 µM requested
[ask] Supply activation at 0.8 µM value. Item: `CCN1CCC(N(C)C(=O)c2csc(-c3cnn(-c4ccccc4C(F)(F)F)c3)n2)CC1`
[reply] 10 to 30%
